Data provenance: the supplement of paper PMC6757056

Please provide measured normalized RNA/DNA level without ligand (log10) for the entries that follow.
B1: library; a variant is named by its letters at N, in order (parent)
chain: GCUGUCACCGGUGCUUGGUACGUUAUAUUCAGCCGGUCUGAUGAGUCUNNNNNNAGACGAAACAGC

# Variants of: B1
# Test Name: normalized RNA/DNA level without ligand (relative to sTRSVctl = 100) (log10 (% of sTRSVctl)); HEK293T overexpressing SLC46A1; higher = less ribozyme self-cleavage, higher mRNA level
# Condition Notes: without (6R,S)-folinic acid; ligand present: no

[Q] What does the data say about its normalized RNA/DNA level without ligand (log10)? Entry: GUUAUA
[A] 1.99

[Q] What does the data say about its normalized RNA/DNA level without ligand (log10)? Entry: CAGGUA
[A] 1.67

[Q] What does the data say about its normalized RNA/DNA level without ligand (log10)? Entry: AUACGG
[A] 1.92

[Q] What does the data say about its normalized RNA/DNA level without ligand (log10)? Entry: UAUAAU
[A] 1.94

[Q] What does the data say about its normalized RNA/DNA level without ligand (log10)? Entry: AUGCCC
[A] 2.04

[Q] What does the data say about its normalized RNA/DNA level without ligand (log10)? Entry: AUGUUU
[A] 1.98

[Q] What does the data say about its normalized RNA/DNA level without ligand (log10)? Entry: UCGCAG
[A] 1.92

[Q] What does the data say about its normalized RNA/DNA level without ligand (log10)? Entry: AUCCAA
[A] 1.96

[Q] What does the data say about its normalized RNA/DNA level without ligand (log10)? Entry: ACAAAC
[A] 2.03

[Q] What does the data say about its normalized RNA/DNA level without ligand (log10)? Entry: ACUAGC
[A] 2

[Q] What does the data say about its normalized RNA/DNA level without ligand (log10)? Entry: UUUCAG
[A] 1.92

[Q] What does the data say about its normalized RNA/DNA level without ligand (log10)? Entry: CGAAAU
[A] 1.94

[Q] What does the data say about its normalized RNA/DNA level without ligand (log10)? Entry: CCUUCG
[A] 2.02

[Q] What does the data say about its normalized RNA/DNA level without ligand (log10)? Entry: CGCUGG
[A] 1.97

[Q] What does the data say about its normalized RNA/DNA level without ligand (log10)? Entry: UCUGAU
[A] 1.97

[Q] What does the data say about its normalized RNA/DNA level without ligand (log10)? Entry: GUUCUG
[A] 1.98

[Q] What does the data say about its normalized RNA/DNA level without ligand (log10)? Entry: UGCCAG
[A] 1.81

[Q] What does the data say about its normalized RNA/DNA level without ligand (log10)? Entry: GUCUGA
[A] 2.05

[Q] What does the data say about its normalized RNA/DNA level without ligand (log10)? Entry: CGUCCA
[A] 2.04

[Q] What does the data say about its normalized RNA/DNA level without ligand (log10)? Entry: CGCACA
[A] 1.99

[Q] What does the data say about its normalized RNA/DNA level without ligand (log10)? Entry: UCAGAG
[A] 1.75

[Q] What does the data say about its normalized RNA/DNA level without ligand (log10)? Entry: CCUAUU
[A] 2.04

[Q] What does the data say about its normalized RNA/DNA level without ligand (log10)? Entry: CUGUAG
[A] 1.93

[Q] What does the data say about its normalized RNA/DNA level without ligand (log10)? Entry: CUGAUU
[A] 2.02

[Q] What does the data say about its normalized RNA/DNA level without ligand (log10)? Entry: ACGGGC
[A] 2.1

[Q] What does the data say about its normalized RNA/DNA level without ligand (log10)? Entry: CUCUCC
[A] 2.1

[Q] What does the data say about its normalized RNA/DNA level without ligand (log10)? Entry: UAGCCG
[A] 1.86

[Q] What does the data say about its normalized RNA/DNA level without ligand (log10)? Entry: AGUCCC
[A] 2.02

[Q] What does the data say about its normalized RNA/DNA level without ligand (log10)? Entry: AGAACG
[A] 1.95

[Q] What does the data say about its normalized RNA/DNA level without ligand (log10)? Entry: GAAUCU
[A] 2.01

[Q] What does the data say about its normalized RNA/DNA level without ligand (log10)? Entry: GCAGGC
[A] 1.88

[Q] What does the data say about its normalized RNA/DNA level without ligand (log10)? Entry: UCGGAA
[A] 1.9

[Q] What does the data say about its normalized RNA/DNA level without ligand (log10)? Entry: GGAUCC
[A] 2.07

[Q] What does the data say about its normalized RNA/DNA level without ligand (log10)? Entry: UGUUCU
[A] 2.03

[Q] What does the data say about its normalized RNA/DNA level without ligand (log10)? Entry: AUCAGC
[A] 2.07

[Q] What does the data say about its normalized RNA/DNA level without ligand (log10)? Entry: GAAGAA
[A] 1.97

[Q] What does the data say about its normalized RNA/DNA level without ligand (log10)? Entry: UGGGCU
[A] 2.06

[Q] What does the data say about its normalized RNA/DNA level without ligand (log10)? Entry: CCUAUC
[A] 2.1

[Q] What does the data say about its normalized RNA/DNA level without ligand (log10)? Entry: AUUUUG
[A] 1.93

[Q] What does the data say about its normalized RNA/DNA level without ligand (log10)? Entry: AAGGGC
[A] 2.04

[Q] What does the data say about its normalized RNA/DNA level without ligand (log10)? Entry: UUAGAU
[A] 1.95

[Q] What does the data say about its normalized RNA/DNA level without ligand (log10)? Entry: CUUCCA
[A] 2.02

[Q] What does the data say about its normalized RNA/DNA level without ligand (log10)? Entry: CGGACG
[A] 2.02

[Q] What does the data say about its normalized RNA/DNA level without ligand (log10)? Entry: CUAGAA
[A] 1.99

[Q] What does the data say about its normalized RNA/DNA level without ligand (log10)? Entry: UUCGUA
[A] 1.96

[Q] What does the data say about its normalized RNA/DNA level without ligand (log10)? Entry: CUGUCA
[A] 2.03
